# Format: in vivo, rat
# condition_details: PM/P (polyI:C+maoto vs polyI:C), 4h
result_type: log2FC of plasma level

1. CCCCC/C=C\C[C@@H]1[C@H](/C=C/C(O)CCCC(=O)O)[C@@H](O)C[C@H]1O (stereo partly shown)	-0.41
2. CCCCC/C=C\CC1OC1CCCCCCCC(=O)O (stereo not shown)	-1.14
3. CCCCC(O)/C=C\C/C=C\C/C=C\C/C=C\CCCC(=O)O (stereo not shown)	-0.94
4. CCCCC/C=C\C/C=C\C/C=C\CC1OC1CCCC(=O)O (stereo not shown)	-0.56
5. CCCCC/C=C\C[C@H](O)/C=C/C=C\C/C=C\CCCC(=O)O	-0.36
6. CCCCC/C=C\C[C@H]1O[C@H]1C/C=C\C/C=C\CCCC(=O)O	-0.59
7. CCCCCC(=O)/C=C/C=C\CCCCCCCC(=O)O	-1.45
8. CCC(O)/C=C/C=C\C/C=C\C/C=C\C/C=C\CCCC(=O)O (stereo not shown)	-0.77
9. CCCC(O)C/C=C\C/C=C\C/C=C\C/C=C\CCCC(=O)O (stereo not shown)	0.16
10. CC/C=C\C/C=C\CC(O)/C=C/C=C\C/C=C\C/C=C\CCC(=O)O (stereo not shown)	-0.58

stdin: Given CCCCC/C=C\C=C\[C@H](CCCCCCCC(=O)O)OO , state its recorded log2FC of plasma level.
stdout: -1.51

stdin: Follow-up item: CCCCCC=CCC=CCC=CC=CC(=O)CCCC(=O)O
stdout: -0.67

stdin: Follow-up item: CCCCC/C=C\CC(=O)/C=C/C=C\C/C=C\CCCC(=O)O
stdout: -1.45

====

Each entry below lists one item and its recorded Cmax value.
# assay_name: Plasma PK of major maoto compounds by LC-MS/MS after oral administration of maoto
# Type: in vivo, rat
# condition_details: Sprague-Dawley, rat, plasma, po, 2 g/kg; read-out: Cmax
# number only, unit ng/mL dropped from output

Worked examples follow.
1. O=C(/C=C/c1ccc(O[C@@H]2O[C@H](CO)[C@@H](O)[C@H](O)[C@H]2O)cc1)c1ccc(O)cc1O	3.6
2. CN[C@@H](C)[C@@H](O)c1ccccc1	163
3. CN[C@@H](C)[C@H](O)c1ccccc1	377
4. N#C[C@H](O[C@@H]1O[C@H](CO)[C@@H](O)[C@H](O)[C@H]1O)c1ccccc1	2240
5. N#C[C@H](O[C@@H]1O[C@H](CO[C@@H]2O[C@H](CO)[C@@H](O)[C@H](O)[C@H]2O)[C@@H](O)[C@H](O)[C@H]1O)c1ccccc1	653

stdin: Given Oc1cc(O)c2c(c1)O[C@H](c1ccc(O)c(O)c1)[C@H](O)[C@H]2c1c(O)cc(O)c2c1O[C@H](c1ccc(O)c(O)c1)[C@H](O)C2 , state its recorded Cmax.
stdout: 0.687

stdin: Follow-up item: COc1cc2ccc(=O)oc2cc1O
stdout: 0.425

====

# assay_name: Plasma PK of major maoto compounds by LC-MS/MS after oral administration of maoto
# Type: in vivo, rat
# condition_details: rat plasma, oral maoto 2 g/kg
Each entry below lists one item and its recorded AUClast value.
# number only, unit ng·h/mL dropped from output

1) Oc1cc(O)c2c(c1)O[C@H](c1ccc(O)c(O)c1)[C@@H](O)C2 [(+)-Catechin]	0.111

As a next step, examine the molecule that follows.
stdin: Given O=C1C[C@@H](c2ccc(O)cc2)Oc2cc(O)ccc21 , state its recorded AUClast.
stdout: 35.0

The measurements presented in this section are drawn from paper PMC5654968.
